- tested.target: T1, human-CD40 monomer (human, UniProt P25942 21-193, limits assumed)
- T1 construct: also called hCD40-monomer; human-CD40-monomer protein
- T1 sequence (P25942 21-193 limits assumed): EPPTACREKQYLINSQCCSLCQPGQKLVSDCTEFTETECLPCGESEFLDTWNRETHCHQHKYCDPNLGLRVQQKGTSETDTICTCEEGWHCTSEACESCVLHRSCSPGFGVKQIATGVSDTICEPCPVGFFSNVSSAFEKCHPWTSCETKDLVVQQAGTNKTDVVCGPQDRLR
- test.details: SPR 2 pt screen, Ab on protein A
measured.parameter: pKd
Note on pKd: it is the negative log10 of concentration, concentration in mol/L.

// below: answered binders
binder	measured.parameter	reported.result
humanized Y1238 hz55 (hz-HC11 / hz-LC5), IgG1.3f (antibody, V domains shown, IgG1.3f heavy constant, common CL; expression supernatant; also called Sup 55) VH: QVQLVQSGAEVKKPGASVKVSCKASGYAFTNYLIEWVRQRPGQGLEWMGVINPGSGGTNYNEKFKGRVTMTRDKSSSTAYMELSRLRSDDTAVYFCARSQLGRRFDYWGQGTLVTVSS VL: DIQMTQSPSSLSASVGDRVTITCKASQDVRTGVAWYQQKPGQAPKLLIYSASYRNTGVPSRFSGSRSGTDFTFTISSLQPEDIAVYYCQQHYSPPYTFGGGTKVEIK	pKd	7.82
humanized Y1238 hz52 (hz-HC11 / hz-LC2), IgG1.3f (antibody, V domains shown, IgG1.3f heavy constant, common CL; expression supernatant; also called Sup 52) VH: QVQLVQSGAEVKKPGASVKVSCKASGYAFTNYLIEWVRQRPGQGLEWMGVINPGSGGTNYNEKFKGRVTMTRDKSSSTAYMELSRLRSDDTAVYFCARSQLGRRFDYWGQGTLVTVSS VL: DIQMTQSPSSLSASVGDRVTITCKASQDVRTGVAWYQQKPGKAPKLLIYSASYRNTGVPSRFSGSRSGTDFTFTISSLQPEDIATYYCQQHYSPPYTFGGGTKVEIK	pKd	8.19
humanized Y1238 hz40 (hz-HC8 / hz-LC5), IgG1.3f (antibody, V domains shown, IgG1.3f heavy constant, common CL; expression supernatant; also called Sup 40) VH: QVQLVQSGAEVVKPGASVKVSCKASGYAFTNYLIEWVRQRPGQGLEWMGVINPGSGGTNYNEKFKGRVTLTADKSSSTAYMQLSRLRSDDTAVYFCARSQLGRRFDYWGQGTLVTVSS VL: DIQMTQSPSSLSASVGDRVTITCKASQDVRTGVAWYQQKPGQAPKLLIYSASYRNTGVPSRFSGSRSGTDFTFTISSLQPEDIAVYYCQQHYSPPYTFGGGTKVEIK	pKd	8.19
humanized Y1238 hz31 (hz-HC7 / hz-LC1), IgG1.3f (antibody, V domains shown, IgG1.3f heavy constant, common CL; expression supernatant; also called Sup 31) VH: QVQLVQSGAEVVKPGASVKVSCKASGYAFTNYLIEWVRQRPGQGLEWMGVINPGSGGTNYNEKFKGRVTMTADKSSSTAYMQLSRLRSDDTAVYFCARSQLGRRFDYWGQGTLVTVSS VL: DIQMTQSPSSLSASVGDRVTITCKASQDVRTGVAWYQQKPGKAPKLLIYSASYRNTGVPSRFSGSGSGTDFTFTISSLQPEDIATYYCQQHYSPPYTFGGGTKVEIK	pKd	8.52

Exercise: Need pKd, item humanized Y1238 hz50 (hz-HC10 / hz-LC5), IgG1.3f (antibody, V domains shown, IgG1.3f heavy constant, common CL; expression supernatant; also called Sup 50) VH: QVQLVQSGAEVKKPGASVKVSCKASGYAFTNYLIEWVRQRPGQGLEWMGVINPGSGGTNYNEKFKGRVTMTRDKSISTAYMELSRLRSDDTAVYYCARSQLGRRFDYWGQGTLVTVSS VL: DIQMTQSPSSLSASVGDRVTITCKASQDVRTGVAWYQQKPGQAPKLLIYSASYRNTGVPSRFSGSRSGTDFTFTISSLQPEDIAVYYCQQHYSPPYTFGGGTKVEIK
Solution: 7.80

// provenance: patent US20220177596A1
